- SYSTEM TESTED: PDGFRα kinase (Homo sapiens, UniProt P16234)
- Sequence (P16234 24-1089): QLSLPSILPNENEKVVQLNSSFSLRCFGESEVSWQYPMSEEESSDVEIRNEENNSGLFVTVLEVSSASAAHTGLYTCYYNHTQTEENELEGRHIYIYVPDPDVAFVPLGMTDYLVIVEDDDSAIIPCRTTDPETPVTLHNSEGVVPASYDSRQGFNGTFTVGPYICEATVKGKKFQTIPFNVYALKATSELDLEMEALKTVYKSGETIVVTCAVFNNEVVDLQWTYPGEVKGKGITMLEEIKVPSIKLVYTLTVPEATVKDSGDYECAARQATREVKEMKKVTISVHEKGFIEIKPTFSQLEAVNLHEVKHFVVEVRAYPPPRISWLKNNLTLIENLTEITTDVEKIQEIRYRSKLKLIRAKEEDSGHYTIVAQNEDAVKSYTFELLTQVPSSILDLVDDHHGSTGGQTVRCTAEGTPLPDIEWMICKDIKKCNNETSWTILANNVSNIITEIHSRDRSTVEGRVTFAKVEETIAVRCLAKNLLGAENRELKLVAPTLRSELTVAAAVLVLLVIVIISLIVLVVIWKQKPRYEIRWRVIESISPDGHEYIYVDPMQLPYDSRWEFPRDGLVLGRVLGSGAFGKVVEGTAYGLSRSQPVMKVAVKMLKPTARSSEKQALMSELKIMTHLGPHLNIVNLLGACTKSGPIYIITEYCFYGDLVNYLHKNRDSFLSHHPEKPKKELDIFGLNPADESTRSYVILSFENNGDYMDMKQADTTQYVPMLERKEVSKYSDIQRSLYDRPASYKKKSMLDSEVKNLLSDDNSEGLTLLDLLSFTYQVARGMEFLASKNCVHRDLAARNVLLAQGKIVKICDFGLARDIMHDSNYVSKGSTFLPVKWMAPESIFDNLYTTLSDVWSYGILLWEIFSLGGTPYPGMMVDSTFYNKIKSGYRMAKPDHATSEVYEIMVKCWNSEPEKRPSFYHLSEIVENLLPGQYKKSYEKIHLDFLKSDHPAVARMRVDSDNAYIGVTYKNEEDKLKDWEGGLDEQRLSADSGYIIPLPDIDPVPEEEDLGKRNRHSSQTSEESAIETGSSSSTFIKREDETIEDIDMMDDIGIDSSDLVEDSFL
RECORDED ENDPOINT: IC50

[[record]]
compound = "CN(c1ccc(-c2cc3c(s2)Cc2c(-c4ccc5cnn(C)c5c4)n[nH]c2-3)cc1)C1CCOCC1 [Compound 73]"
system_tested = "PDGFRα kinase (Homo sapiens, UniProt P16234)"
recorded_endpoint = "IC50"
obs_value = "30 to 100 nM"

[[record]]
compound = "Cn1ncc2ccc(-c3n[nH]c4c3Cc3sc(N5CCOCC5)cc3-4)cc21 [Compound 78]"
system_tested = "PDGFRα kinase (Homo sapiens, UniProt P16234)"
recorded_endpoint = "IC50"
obs_value = "1 to 10 nM"

[[record]]
compound = "Cn1ncc2ccc(-c3n[nH]c4c3Cc3sc(C5CCNCC5)cc3-4)cc21 [Compound 96]"
system_tested = "PDGFRα kinase (Homo sapiens, UniProt P16234)"
recorded_endpoint = "IC50"
obs_value = "1 to 10 nM"

[[record]]
compound = "Cn1ncc2ccc(-c3n[nH]c4c3Cc3sc(-c5ccc(CN6CCOC6=O)cc5)cc3-4)cc21 [Compound 62]"
system_tested = "PDGFRα kinase (Homo sapiens, UniProt P16234)"
recorded_endpoint = "IC50"
obs_value = "10 to 30 nM"

[[record]]
compound = "Cn1ncc2ccc(-c3n[nH]c4c3Cc3sc(-c5ccc(CN6CCOCC6)c(F)c5F)cc3-4)cc21 [Compound 88]"
system_tested = "PDGFRα kinase (Homo sapiens, UniProt P16234)"
recorded_endpoint = "IC50"
obs_value = "30 to 100 nM"

[[record]]
compound = "Cn1ncc2ccc(-c3n[nH]c4c3Cc3sc(-c5cc(F)c(CN6CCOCC6)c(F)c5)cc3-4)cc21 [Compound 53]"
system_tested = "PDGFRα kinase (Homo sapiens, UniProt P16234)"
recorded_endpoint = "IC50"
obs_value = "30 to 100 nM"

[[record]]
compound = "Cn1ncc2ccc(-c3n[nH]c4c3Cc3sc(-c5ccc(CN6CCCCC6=O)cc5)cc3-4)cc21 [Compound 61]"
system_tested = "PDGFRα kinase (Homo sapiens, UniProt P16234)"
recorded_endpoint = "IC50"
obs_value = "1 to 10 nM"

[[record]]
compound = "Nc1ccc(-c2cc3c(s2)Cc2c(-c4ccc5cn[nH]c5c4)n[nH]c2-3)cn1 [Compound 3]"
system_tested = "PDGFRα kinase (Homo sapiens, UniProt P16234)"
recorded_endpoint = "IC50"
obs_value = "1 to 10 nM"


====

Below, each entry is listed with its recorded pIC50.
- SYSTEM TESTED: FLT3-D835Y mutant kinase (Homo sapiens, UniProt P36888, D835Y)
- Construct: purchased SignalChem
- Sequence (P36888 27-993 D835Y): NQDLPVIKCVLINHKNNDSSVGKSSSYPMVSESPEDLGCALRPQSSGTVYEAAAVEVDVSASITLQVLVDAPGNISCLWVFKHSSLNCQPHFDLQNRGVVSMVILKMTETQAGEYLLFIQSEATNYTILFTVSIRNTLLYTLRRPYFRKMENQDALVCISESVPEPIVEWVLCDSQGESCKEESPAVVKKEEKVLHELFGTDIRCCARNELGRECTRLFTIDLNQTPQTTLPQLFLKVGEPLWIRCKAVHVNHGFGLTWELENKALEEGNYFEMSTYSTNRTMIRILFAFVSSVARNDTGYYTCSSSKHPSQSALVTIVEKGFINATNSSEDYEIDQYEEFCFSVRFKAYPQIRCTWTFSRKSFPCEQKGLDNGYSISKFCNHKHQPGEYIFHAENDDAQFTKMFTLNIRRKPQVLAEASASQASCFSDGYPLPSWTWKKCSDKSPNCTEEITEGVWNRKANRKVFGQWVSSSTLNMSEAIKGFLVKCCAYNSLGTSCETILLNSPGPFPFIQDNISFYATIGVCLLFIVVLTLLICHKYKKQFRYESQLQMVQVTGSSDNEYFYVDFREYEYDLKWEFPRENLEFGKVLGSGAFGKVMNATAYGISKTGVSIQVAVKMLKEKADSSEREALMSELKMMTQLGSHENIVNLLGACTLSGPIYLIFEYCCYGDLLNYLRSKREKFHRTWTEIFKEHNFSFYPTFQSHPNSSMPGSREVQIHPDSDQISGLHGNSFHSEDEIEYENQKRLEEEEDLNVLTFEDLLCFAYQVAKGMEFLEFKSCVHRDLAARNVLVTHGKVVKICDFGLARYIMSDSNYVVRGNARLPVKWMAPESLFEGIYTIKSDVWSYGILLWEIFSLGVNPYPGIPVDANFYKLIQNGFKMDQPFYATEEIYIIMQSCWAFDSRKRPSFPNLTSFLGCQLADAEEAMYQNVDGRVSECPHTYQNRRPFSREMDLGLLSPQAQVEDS
- PROTOCOL TEXT: FLT3-D835Y mutant kinase assay (AlphaScreen)
- Assay type: biochemical
- RUN CONDITIONS: read-out: Ranking of IC50 values, FLT3-D835Y
pIC50: −log10 of the molar value.
RECORDED ENDPOINT: pIC50

[[record]]
compound = "C[C@@H]1CN(Cc2ccc(-c3cc4c(s3)Cc3c(-c5ccc6cnn(C)c6c5)n[nH]c3-4)cn2)C[C@H](C)O1 [Compound 9]"
recorded_endpoint = "pIC50"
obs_value = "> 9.00"

[[record]]
compound = "C[C@@H]1CN(Cc2ccc(-c3cc4c(s3)Cc3c(-c5ccc6cn[nH]c6c5)n[nH]c3-4)cn2)C[C@H](C)O1 [Compound 16]"
recorded_endpoint = "pIC50"
obs_value = "> 9.00"

[[record]]
compound = "Cn1ncc2ccc(-c3n[nH]c4c3Cc3sc(-c5ccc(CN6CCOCC6)cc5OC(F)(F)F)cc3-4)cc21 [Compound 90]"
recorded_endpoint = "pIC50"
obs_value = "8.00 to 9.00"

[[record]]
compound = "Cn1ncc2ccc(-c3n[nH]c4c3Cc3sc(-c5ccc(CN6CCNC(=O)C6)cc5)cc3-4)cc21 [Compound 63]"
recorded_endpoint = "pIC50"
obs_value = "8.00 to 9.00"


====

- Tested on: HCC827 NSCLC cell with EGFR exon 19 deletion mutation
- PROTOCOL TEXT: HCC827 cell proliferation assay (counter screen)
- Type: cell-based, human
- RUN CONDITIONS: Homo sapiens, HCC827 cells, 72 hours treatment, CellTiter96, read-out: anti-proliferation activity HCC827 EGFR Exon19 del, IC50 ranking
- Method: Inhibitions of cell growths by compounds were measured using CellTiter™-96 assay. […] MV4-11, Molm-14, THP-1, A375, and HCC827 cells were seeded into 96-well plates at 6500, 25000, 5000, 2000 and 8000 cells/well, respectively, and incubated at 37° C., 5% CO2 overnight. […] Cell viability was determined by measuring absorbance at 490 nm using EMax® microplate reader (Molecular Devices, San Jose, CA, USA).
pIC50: −log10 of the molar value.
Known pIC50 of a selection of compounds
RECORDED ENDPOINT: pIC50

[[record]]
query_smiles = "Cn1ncc2ccc(-c3n[nH]c4c3Cc3sc(-c5ccc(C(=O)N6CCCCC6)cc5)cc3-4)cc21"
recorded_endpoint = "pIC50"
obs_value = "< 5.00"

[[record]]
query_smiles = "COc1ccc(-c2cc3c(s2)Cc2c(-c4ccc5cn[nH]c5c4)n[nH]c2-3)cn1"
recorded_endpoint = "pIC50"
obs_value = "< 5.00"

[[record]]
query_smiles = "Cn1ncc2ccc(-c3n[nH]c4c3Cc3sc(C#CCN5CCOCC5)cc3-4)cc21"
recorded_endpoint = "pIC50"
obs_value = "< 5.00"

[[record]]
query_smiles = "CN(C)Cc1ccc(-c2cc3c(s2)Cc2c(-c4ccc5cnn(C)c5c4)n[nH]c2-3)cc1"
recorded_endpoint = "pIC50"
obs_value = "5.00 to 6.00"

[[record]]
query_smiles = "Cn1ncc2ccc(-c3n[nH]c4c3Cc3sc(-c5ccc(CCN6CCOCC6)cc5)cc3-4)cc21"
recorded_endpoint = "pIC50"
obs_value = "< 5.00"

[[record]]
query_smiles = "Cc1cc(CN2CCOCC2)ccc1-c1cc2c(s1)Cc1c(-c3ccc4cnn(C)c4c3)n[nH]c1-2"
recorded_endpoint = "pIC50"
obs_value = "< 5.00"


====

- Tested on: MV4-11 human acute myeloid leukemia cell with FLT3-ITD mutation
- PROTOCOL TEXT: MV4-11 cell proliferation assay (CellTiter 96)
- Assay type: cell-based
- RUN CONDITIONS: Homo sapiens, MV4-11, 72 h, MV4-11 cells, 72 hours treatment, CellTiter96; read-out: anti-proliferation activity MV4-11 (FLT3-ITD), IC50 ranking
pIC50: −log10 of the molar value.
Listed next: entries and their corresponding pIC50.
RECORDED ENDPOINT: pIC50

[[record]]
compound = "Cn1ncc2ccc(-c3n[nH]c4c3Cc3sc(-c5ccc(N)nc5)cc3-4)cc21 [Compound 92]"
recorded_endpoint = "pIC50"
obs_value = "> 7.52"

[[record]]
compound = "CN1CCN(c2cc(-c3cc4c(s3)Cc3c(-c5ccc6cnn(C)c6c5)n[nH]c3-4)ccn2)CC1 [Compound 87]"
recorded_endpoint = "pIC50"
obs_value = "7.00 to 7.52"

[[record]]
compound = "Cn1ncc2ccc(-c3n[nH]c4c3Cc3sc(-c5ccc(CN6CCCOCC6)cc5)cc3-4)cc21 [Compound 97]"
recorded_endpoint = "pIC50"
obs_value = "> 7.52"

[[record]]
compound = "Cn1ncc2ccc(-c3n[nH]c4c3Cc3sc(-c5ccc(CCN6CCOCC6)cc5)cc3-4)cc21 [Compound 22]"
recorded_endpoint = "pIC50"
obs_value = "> 7.52"

[[record]]
compound = "Cn1ncc2ccc(-c3n[nH]c4c3Cc3sc(-c5ccc(CN6CCOCC6)cc5F)cc3-4)cc21 [Compound 32]"
recorded_endpoint = "pIC50"
obs_value = "7.00 to 7.52"

[[record]]
compound = "Cn1nnc2ccc(-c3n[nH]c4c3Cc3sc(-c5ccc(CN6CCOCC6)cc5)cc3-4)cc21 [Compound 89]"
recorded_endpoint = "pIC50"
obs_value = "7.00 to 7.52"

[[record]]
compound = "CN(C)S(=O)(=O)c1ccc(-c2cc3c(s2)Cc2c(-c4ccc5cnn(C)c5c4)n[nH]c2-3)cc1 [Compound 50]"
recorded_endpoint = "pIC50"
obs_value = "> 7.52"

[[record]]
compound = "COC1CN(Cc2ccc(-c3cc4c(s3)Cc3c(-c5ccc6cnn(C)c6c5)n[nH]c3-4)cc2)C1 [Compound 105]"
recorded_endpoint = "pIC50"
obs_value = "> 7.52"

[[record]]
compound = "Cn1ncc2ccc(-c3n[nH]c4c3Cc3sc(-c5ccc(CN6CCOCC6=O)cc5)cc3-4)cc21 [Compound 59]"
recorded_endpoint = "pIC50"
obs_value = "> 7.52"

[[record]]
compound = "Cn1ncc2ccc(-c3n[nH]c4c3Cc3sc(-c5ccc(C(=O)N6CCOCC6)nc5)cc3-4)cc21 [Compound 23]"
recorded_endpoint = "pIC50"
obs_value = "> 7.52"

[[record]]
compound = "Cc1cc(-c2cc3c(s2)Cc2c(-c4ccc5cnn(C)c5c4)n[nH]c2-3)ccn1 [Compound 17]"
recorded_endpoint = "pIC50"
obs_value = "> 7.52"

[[record]]
compound = "CN1CCN(Cc2ccc(-c3cc4c(s3)Cc3c(-c5ccc6cn[nH]c6c5)n[nH]c3-4)cc2)CC1 [Compound 83]"
recorded_endpoint = "pIC50"
obs_value = "> 7.52"

[[record]]
compound = "Cn1ncc2ccc(-c3n[nH]c4c3Cc3sc(-c5ccc(CCN6CCOCC6=O)cc5)cc3-4)cc21 [Compound 66]"
recorded_endpoint = "pIC50"
obs_value = "> 7.52"

[[record]]
compound = "Cc1cc(CN2CCOCC2)ccc1-c1cc2c(s1)Cc1c(-c3ccc4cnn(C)c4c3)n[nH]c1-2 [Compound 91]"
recorded_endpoint = "pIC50"
obs_value = "6.52 to 7.00"

[[record]]
compound = "CN(C)Cc1ccc(-c2cc3c(s2)Cc2c(-c4ccc5cnn(C)c5c4)n[nH]c2-3)cc1 [Compound 94]"
recorded_endpoint = "pIC50"
obs_value = "> 7.52"

[[record]]
compound = "Cn1ncc2ccc(-c3n[nH]c4c3Cc3sc(-c5ccc(CN6CCOCC6)c(F)c5)cc3-4)cc21 [Compound 25]"
recorded_endpoint = "pIC50"
obs_value = "> 7.52"

[[record]]
compound = "Cc1ccc(-c2cc3c(s2)Cc2c(-c4ccc5cn[nH]c5c4)n[nH]c2-3)cn1 [Compound 30]"
recorded_endpoint = "pIC50"
obs_value = "7.00 to 7.52"

[[record]]
compound = "c1cc(-c2cc3c(s2)Cc2c(-c4ccc5cn[nH]c5c4)n[nH]c2-3)ccc1CN1CCOCC1 [Compound 6]"
recorded_endpoint = "pIC50"
obs_value = "> 7.52"

[[record]]
compound = "C[C@@H]1CN(Cc2ccc(-c3cc4c(s3)Cc3c(-c5ccc6cn[nH]c6c5)n[nH]c3-4)cn2)C[C@H](C)O1 [Compound 16]"
recorded_endpoint = "pIC50"
obs_value = "> 7.52"

[[record]]
compound = "Cn1ncc2ccc(-c3n[nH]c4c3Cc3sc(-c5csc(C(=O)N6CCOCC6)n5)cc3-4)cc21 [Compound 60]"
recorded_endpoint = "pIC50"
obs_value = "> 7.52"

[[record]]
compound = "CN(C)c1ccc(-c2cc3c(s2)Cc2c(-c4ccc5cnn(C)c5c4)n[nH]c2-3)cn1 [Compound 5]"
recorded_endpoint = "pIC50"
obs_value = "7.00 to 7.52"

[[record]]
compound = "C[C@@H]1CN(C(=O)c2ccc(-c3cc4c(s3)Cc3c(-c5ccc6cnn(C)c6c5)n[nH]c3-4)cc2)C[C@H](C)O1 [Compound 19]"
recorded_endpoint = "pIC50"
obs_value = "> 7.52"

[[record]]
compound = "CN1CCN(Cc2cccc(-c3cc4c(s3)Cc3c(-c5ccc6cnn(C)c6c5)n[nH]c3-4)c2)CC1 [Compound 14]"
recorded_endpoint = "pIC50"
obs_value = "> 7.52"

[[record]]
compound = "Cn1ncc2ccc(-c3n[nH]c4c3Cc3sc(C5CCNCC5)cc3-4)cc21 [Compound 96]"
recorded_endpoint = "pIC50"
obs_value = "> 7.52"

